tested on: MOLM-13 AML cells (expressing WT SHP2); assay: Cell viability assay (CellTiter-Glo), MOLM-13; assay type: cell-based; details: Homo sapiens, MOLM-13, 72 h, regular MOLM-13 cells, CRISPR comparison experiment
Assay endpoint: IC50

Reported IC50 ( O=C(Nc1ccccc1)c1cc(-c2ccc(/C=C3\Sc4ccccc4C3=O)o2)ccc1O [#02] ) = 15 µM

---

biological target: full-length SHP2 wild-type (SHP2-WT) (Homo sapiens (Human), UniProt Q06124); experiment: DiFMUP fluorescence intensity phosphatase inhibition assay, SHP2-WT activated with IRS-1 peptide; settings: DiFMUP at Km (60 μM), IRS-1 peptide activated
Sequence (Q06124 whole entry, other chains not shown): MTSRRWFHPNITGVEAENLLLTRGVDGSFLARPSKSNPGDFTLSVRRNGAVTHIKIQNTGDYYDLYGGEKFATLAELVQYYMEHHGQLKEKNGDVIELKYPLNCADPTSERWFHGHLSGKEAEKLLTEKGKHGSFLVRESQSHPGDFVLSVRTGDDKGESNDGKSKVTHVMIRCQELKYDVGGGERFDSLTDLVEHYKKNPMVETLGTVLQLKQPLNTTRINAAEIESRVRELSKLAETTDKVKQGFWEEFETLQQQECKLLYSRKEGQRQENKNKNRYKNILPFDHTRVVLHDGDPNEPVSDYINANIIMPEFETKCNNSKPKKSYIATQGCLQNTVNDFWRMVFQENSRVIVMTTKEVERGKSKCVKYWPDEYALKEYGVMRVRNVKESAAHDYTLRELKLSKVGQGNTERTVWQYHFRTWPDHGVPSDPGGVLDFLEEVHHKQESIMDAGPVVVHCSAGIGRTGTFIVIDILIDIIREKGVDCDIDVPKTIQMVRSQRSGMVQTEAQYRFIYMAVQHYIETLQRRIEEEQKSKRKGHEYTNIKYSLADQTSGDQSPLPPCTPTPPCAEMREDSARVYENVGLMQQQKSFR
Would you mind telling me the reported IC50 of each entry?

Previously resolved entries follow.
{"columns": ["Chem smiles", "IC50"],
 "data": [
  ["O=C(/C=C/c1ccc(-c2ccc(O)c(C(=O)O)c2)o1)c1cccc(C(=O)/C=C/c2ccc(-c3ccc(O)c(C(=O)O)c3)o2)c1", "1 to 20 µM"],
  ["O=C1CCCC/C1=C\\c1ccc(-c2ccc(O)c(C(=O)O)c2)o1", "20 to 100 µM"],
  ["CC(C)NC(=O)c1cccc(-c2ccc(/C=C3\\Sc4ccccc4C3=O)o2)c1", "≥ 100 µM"]
]}

Record IC50 for all entries; do not skip any.
1. O=C1CCC/C1=C\c1ccc(-c2cccc(C(=O)O)c2)o1
2. O=C(O)c1ccc(-c2ccc(/C=C3\Sc4ccccc4C3=O)o2)cc1
3. O=C(O)c1cccc(-c2ccc(/C=C/C(=O)c3cccc(C(=O)/C=C/c4ccc(-c5cccc(C(=O)O)c5)o4)c3)o2)c1

1: 20 to 100 µM; 2: 1 to 20 µM; 3: 1 to 20 µM

Record IC50 for all entries; do not skip any.
1. O=C(O)c1cc(-c2ccc(/C=C3\Cc4ccccc4C3=O)o2)ccc1O
2. O=C(/C=C/c1ccc(Br)o1)c1cccc(C(=O)/C=C/c2ccc(Br)o2)c1
3. Nc1ccc(NC(=O)c2cc(-c3ccc(/C=C4\Sc5ccccc5C4=O)o3)ccc2O)cc1
4. O=C1/C(=C/c2ccc(O)c(C(=O)O)c2)CC/C1=C\c1ccc(O)c(C(=O)O)c1
5. C/C=C1\CC/C(=C\c2ccc(-c3ccc(O)c(C(=O)O)c3)o2)C1=O
6. CC(C)NC(=O)c1cc(-c2ccc(/C=C3\Oc4ccccc4C3=O)o2)ccc1O
7. O=C(O)c1cccc(-c2ccc(/C=C3\Cc4ccccc4C3=O)o2)c1
8. O=C(O)c1cccc(-c2ccc(/C=C3\Sc4ccccc4C3=O)o2)c1

["1 to 20 µM", "20 to 100 µM", "1 to 20 µM", "1 to 20 µM", "1 to 20 µM", "1 to 20 µM", "20 to 100 µM", "1 to 20 µM"]

Record IC50 for all entries; do not skip any.
1. O=C1CCC/C1=C\c1ccc(-c2ccc(O)c(C(=O)Nc3ccccc3)c2)o1
2. COc1ccc(-c2ccc(/C=C3\Sc4ccccc4C3=O)o2)cc1C(=O)Nc1ccccc1
3. O=C1/C(=C/c2ccc(-c3ccccc3)o2)Sc2ccccc21
4. O=C(NCCO)c1cc(-c2ccc(/C=C3\Sc4ccccc4C3=O)o2)ccc1O
5. O=C(NNc1ccccc1)c1cc(-c2ccc(/C=C3\Sc4ccccc4C3=O)o2)ccc1O
6. Nc1cccc(NC(=O)c2cc(-c3ccc(/C=C4\Sc5ccccc5C4=O)o3)ccc2O)c1

1: 1 to 20 µM; 2: 20 to 100 µM; 3: ≥ 100 µM; 4: ≥ 100 µM; 5: 1 to 20 µM; 6: 1 to 20 µM
